Study system: T1, full-length beta-Catenin (Uniprot ID P35222) (Homo sapiens (Human), UniProt P35222 2-781)
T1 construct: also called bCat; B-Catenin
T1 sequence: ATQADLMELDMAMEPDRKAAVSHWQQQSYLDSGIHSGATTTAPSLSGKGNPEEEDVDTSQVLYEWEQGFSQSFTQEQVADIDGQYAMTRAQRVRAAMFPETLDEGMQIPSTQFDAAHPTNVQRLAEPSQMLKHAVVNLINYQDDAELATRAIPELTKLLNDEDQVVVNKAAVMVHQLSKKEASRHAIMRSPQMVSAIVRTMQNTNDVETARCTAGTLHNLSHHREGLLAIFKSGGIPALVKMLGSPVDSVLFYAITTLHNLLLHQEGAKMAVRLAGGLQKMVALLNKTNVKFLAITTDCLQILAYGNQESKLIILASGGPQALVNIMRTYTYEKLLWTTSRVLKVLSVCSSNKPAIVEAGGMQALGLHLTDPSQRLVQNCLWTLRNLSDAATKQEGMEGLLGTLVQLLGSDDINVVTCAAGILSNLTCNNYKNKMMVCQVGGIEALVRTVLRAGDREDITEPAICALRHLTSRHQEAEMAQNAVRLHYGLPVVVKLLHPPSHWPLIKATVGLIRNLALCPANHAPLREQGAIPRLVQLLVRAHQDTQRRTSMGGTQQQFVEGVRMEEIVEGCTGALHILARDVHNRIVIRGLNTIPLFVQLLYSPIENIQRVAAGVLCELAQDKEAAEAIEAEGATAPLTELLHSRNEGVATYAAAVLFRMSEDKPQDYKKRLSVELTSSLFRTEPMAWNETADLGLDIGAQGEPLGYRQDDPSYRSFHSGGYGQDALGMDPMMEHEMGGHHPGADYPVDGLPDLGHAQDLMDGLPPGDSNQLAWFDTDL
Assay details: fluorescence polarization competition; full-length beta-catenin, 5FAM-TCF4(10-53) probe as competitor
Starred links: 1 amine or outer side, 2 acyl side, 3 side chain; linkers in the order of their positions; H or OH if unused. Positions of bridges follow the written chain, without caps; N, C: chain ends. Non-standard residues stand in square brackets, D forms with d. Primed or numbered codes have the meaning given here. PyrS2″ = (S)-3-amino-1-((pent-4-en-1-yloxy)carbonyl)pyrrolidine-3-carboxylic acid (stapling residue), C=CCCCOC(=O)N1CC[C@@](N[*:1])(C(=O)[*:2])C1; B5(4) = 2,2-bis(4-pentenyl)glycine = 2-amino-2-(pent-4-en-1-yl)hept-6-enoic acid (stitching residue), C=CCCCC(CCCC=C)(N[*:1])C(=O)[*:2]; PyrS2 = (S)-3-amino-1-((pent-4-en-1-yloxy)carbonyl)pyrrolidine-3-carboxylic acid, C=CCCCOC(=O)N1CC[C@@](N[*:1])(C(=O)[*:2])C1; Bta = N[C@@H](Cc1csc2ccccc12)C(=O)O; Lys(iPr) = CC(C)NCCCC[C@H](N)C(=O)O; αAllylPro = C=CC[C@@]1(C(=O)O)CCCN1; tBuAla = CC(C)(C)C[C@H](N)C(=O)O
Under this convention, class 1 denotes IC50 strictly below 3 µM and class 0 denotes IC50 at or above 3 µM.

[
  {
    "Binder": "Ac-[αAllylPro]N[tBuAla][B5(4)]DT[Lys(iPr)]AFL[PyrS2]YWQ-NH2 (staple 1-4, 4-11) [I-1590]",
    "Label value": "class 0"
  },
  {
    "Binder": "Ac-[αAllylPro]NF[B5(4)]DT[Lys(iPr)]AFL[PyrS2″]F[Bta]Q-NH2 (staple 1-4, 4-11) [I-1580]",
    "Label value": "class 1"
  },
  {
    "Binder": "Ac-[αAllylPro]N[Lys(iPr)][B5(4)]DT[Lys(iPr)]AFL[PyrS2]F[Bta]Q-NH2 (staple 1-4, 4-11) [I-1591]",
    "Label value": "class 0"
  }
]

Ask: Report whether reported IC50 is lower than 3 µM (strictly) for Ac-[αAllylPro]NW[B5(4)]DT[Lys(iPr)]AFL[PyrS2″]F[Bta]Q-NH2 (staple 1-4, 4-11) [I-1581]
Result: class 0

Ask: Just wondering, is IC50 of Ac-[αAllylPro]NQ[B5(4)]DT[Lys(iPr)]AFL[PyrS2″]F[Bta]Q-NH2 (staple 1-4, 4-11) [I-1584] below 3 µM?
Result: class 1

Values were extracted from patent US20240116985A1.
